Molecular target: 5-HT6 receptor (Homo sapiens, UniProt P50406)
Sequence (P50406 whole entry): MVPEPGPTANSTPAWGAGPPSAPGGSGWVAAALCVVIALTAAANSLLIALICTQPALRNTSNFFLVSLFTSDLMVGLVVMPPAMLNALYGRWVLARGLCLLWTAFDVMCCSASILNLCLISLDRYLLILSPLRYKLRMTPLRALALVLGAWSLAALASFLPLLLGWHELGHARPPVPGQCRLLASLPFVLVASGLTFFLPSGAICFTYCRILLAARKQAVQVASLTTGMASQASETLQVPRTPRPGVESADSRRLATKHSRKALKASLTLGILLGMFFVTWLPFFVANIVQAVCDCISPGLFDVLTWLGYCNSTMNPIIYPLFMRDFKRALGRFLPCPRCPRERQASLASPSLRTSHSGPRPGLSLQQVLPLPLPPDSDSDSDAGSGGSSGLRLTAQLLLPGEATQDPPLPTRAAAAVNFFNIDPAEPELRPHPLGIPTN
Test: Inhibition of serotonine stimulated intracellular cAMP in HEK 293 cells with expressed 5-HT6 receptor (LANCE cAMP)
Conditions: HEK 293 cells with artificially expressed 5-HT6 receptor; reduction of cAMP induced by serotonine
Experimental: The concentration of intracellular cAMP was determined using a LANCE cAMP reagent (PerkinElmer) by the method described by the manufacturer: [http://las.perkinelmer.com/content/Manuals/MAN_LANCEcAMP384KitUser.pdf].
experimentalReadout: IC50 (µM)
Give the number; µM is assumed, so skip it.

Sample CN1CCc2c(c3ccccc3n2C#Cc2ccccc2)C1 ; IC50 observed: 4.09
